test system: SF-295 CNS; assay: NCI-60 one-dose screen, 48 h (100 = growth as untreated, 0 = no growth, -100 = all killed); conditions: 10 µM unless noted
About 83,000 compounds went through this panel and 20% of them were active in at least one assay; those are over-represented in the sample as a whole.
QUANTITY_KIND: growth (%)
Numbers only, in %.

Batch request: growth for each of the following compounds.
1. Cn1c2c(c3ccc(-c4ccn[nH]4)cc3c1=O)C(=O)c1ccccc1-2
2. CCSc1ccc(C2C(Br)C(=O)N2c2cc(OC)c(OC)c(OC)c2)cc1 (centres undefined)

Outgoing:
1. 20.5
2. 15.7

Batch request: growth for each of the following compounds.
1. C=C1C(=O)O[C@H]2[C@H]1CC/C(COC(=O)Nc1nc3ccccc3[nH]1)=C\CC[C@@]1(C)O[C@@H]21
2. Cc1ccc(C2=N[C@H]3CCC[C@@H]3N(c3ccccc3)C(C(Cl)Cl)=N2)cc1
3. Fc1ccc(N/N=C/c2ccc(-n3cccn3)cc2)cc1
4. CCOC(=O)/C(=C/c1c(-c2ccccc2)[nH]c2ccccc12)C(=O)c1ccc(Cl)cc1
5. COC(=O)[C@]1(C)CCC[C@]2(C)[C@H]3C[C@H]4C(C(C)C)=C[C@]3(CC[C@H]21)[C@@H]1C(=O)N(CCC#N)C(=O)[C@@H]14

Outgoing:
[107, 91.7, 87.6, -15.3, 99.5]

Batch request: growth for each of the following compounds.
1. O=C(NC[C@H](O)CN1CCc2ccccc2C1)c1cc(NC2COC2)ncn1
2. O=C(C[n+]1cccc2cc(Cl)ccc21)c1ccc2c(c1)CCCC2

Outgoing:
[97.7, 47.2]
